These measurements were taken from ChEMBL document CHEMBL3526117.

Would you mind telling me the reported Kd of each entry?
target or system: Cytochrome P450 2A13 (Homo sapiens, UniProt Q16696)
Sequence (Q16696 whole entry): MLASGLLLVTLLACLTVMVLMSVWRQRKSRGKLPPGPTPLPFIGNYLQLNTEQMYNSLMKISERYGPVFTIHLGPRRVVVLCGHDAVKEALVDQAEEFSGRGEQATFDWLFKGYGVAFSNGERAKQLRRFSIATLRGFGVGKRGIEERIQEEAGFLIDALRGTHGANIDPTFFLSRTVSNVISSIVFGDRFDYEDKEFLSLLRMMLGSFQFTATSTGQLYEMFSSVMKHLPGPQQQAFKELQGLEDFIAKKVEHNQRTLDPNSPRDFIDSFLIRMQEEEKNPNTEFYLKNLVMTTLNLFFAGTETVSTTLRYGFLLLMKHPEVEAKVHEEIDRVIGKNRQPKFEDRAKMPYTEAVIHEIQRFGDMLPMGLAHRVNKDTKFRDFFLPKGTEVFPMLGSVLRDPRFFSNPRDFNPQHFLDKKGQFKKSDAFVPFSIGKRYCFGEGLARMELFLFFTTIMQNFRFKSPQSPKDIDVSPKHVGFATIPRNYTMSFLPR
test description: Binding affinity to CYP2A13 (unknown origin) assessed as type 2 interaction as increase in absorbance 431 to 432 nm and decrease in 406 to 412 nm
Type: ADME

Q) What value of Kd on Cytochrome P450 2A13 (Homo sapiens, UniProt Q16696) does N[C@@H]1C[C@H]1c1ccccc1.N[C@H]1C[C@@H]1c1ccccc1 (racemic) [TRANYLCYPROMINE] have?
A) 2.3 µM

Q) Would you kindly repeat that for NCCc1c[nH]c2ccccc12 [TRYPTAMINE] ?
A) 5.2 µM

* * *

Tested on: CYP2A6 and CYP2A13
test description: Ratio of Kd for CYP2A6 (unknown origin) to Kd for CYP2A13 assessed as type 2 interaction as increase in absorbance 431 to 432 nm and decrease in 406 to 412 nm
Format: ADME
measurement setup: human
readout type: selectivity ratio

Q) Recorded selectivity ratio for NCCc1c[nH]c2ccccc12 [TRYPTAMINE] with CYP2A6 and CYP2A13, please?
A) 2.3

* * *

Tested on: CYP2A6 and CYP2A13
test description: Ratio of Ki for CYP2A13 (unknown origin) to Ki for CYP2A6 (unknown origin)
measurement setup: human
readout type: selectivity ratio

Q) Fill blank: measured selectivity ratio of the compound CN1CCC[C@H]1c1cccnc1 is ____.
A) 0.55

Q) What do you have for Cn1cccc1-c1cccnc1 ?
A) 0.74

Q) Same for Cc1coc2c1CC[C@@H](C)C2
A) 27

Q) Repeat for the following compound: S=C=NCCc1ccccc1 [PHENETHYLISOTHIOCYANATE]
A) 2.2

Q) Okay, and NCCc1c[nH]c2ccccc12 ?
A) 9.4

Q) Please do the same for CN(C)c1ccc(C=O)cc1 as well.
A) 4.6

* * *

target or system: Cytochrome P450 2A6 (Homo sapiens)
Sequence (P11509 whole entry): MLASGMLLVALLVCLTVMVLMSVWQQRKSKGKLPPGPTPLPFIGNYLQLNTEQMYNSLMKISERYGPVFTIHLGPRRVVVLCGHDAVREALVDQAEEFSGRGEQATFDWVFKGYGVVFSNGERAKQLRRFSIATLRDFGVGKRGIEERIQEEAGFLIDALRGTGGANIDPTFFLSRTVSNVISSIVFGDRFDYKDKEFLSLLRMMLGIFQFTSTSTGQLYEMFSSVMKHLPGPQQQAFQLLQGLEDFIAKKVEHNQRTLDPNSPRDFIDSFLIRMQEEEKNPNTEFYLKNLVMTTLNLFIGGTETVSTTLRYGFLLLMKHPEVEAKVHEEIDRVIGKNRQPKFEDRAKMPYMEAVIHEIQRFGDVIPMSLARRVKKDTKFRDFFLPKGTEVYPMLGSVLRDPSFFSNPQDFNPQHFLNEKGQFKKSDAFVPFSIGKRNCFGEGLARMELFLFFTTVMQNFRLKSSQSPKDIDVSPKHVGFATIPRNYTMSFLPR
test description: Binding affinity to CYP2A6 (unknown origin) assessed as type 1 interaction as increase in absorbance 379 to 387 nm and decrease in 414 to 420 nm
Assay type: ADME
Task for the reader: assign each of the following compounds its reported Kd.
Express it in µM; write the number only.

Q) Entry Cn1cccc1-c1cccnc1 , system Cytochrome P450 2A6 (Homo sapiens): what Kd was measured?
A) 71

Q) Cool, now S=C=NCCc1ccccc1 [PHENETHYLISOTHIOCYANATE]
A) 6.2

Q) // same read-out, input: CN(C)c1ccc(C=O)cc1
A) 0.68

Q) Also, CN1CCC[C@H]1c1cccnc1 please.
A) 470

Q) Also Cc1coc2c1CC[C@@H](C)C2 , if possible.
A) 4.5
